Where these numbers come from: paper PMC10671530

Target: OsCCA1 DNA-binding (R/MYB) domain (Oryza sativa (cDNA of Heidao), UniProt A0A0P0XBU0 1-138)
Sequence (A0A0P0XBU0 1-138): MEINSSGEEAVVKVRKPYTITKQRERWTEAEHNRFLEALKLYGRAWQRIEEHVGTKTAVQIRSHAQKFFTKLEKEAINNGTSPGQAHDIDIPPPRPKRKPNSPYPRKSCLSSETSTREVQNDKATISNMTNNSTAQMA
Assay: EMSA; EMSA: 10 uL with 2 uL 5x binding buffer (Invitrogen), 1.3 ug protein, 20 pmol probe, 23 C, 20 min; 10% native PAGE, 100 V about 70 min; gel stained for DNA and
Conditions: protein: recombinant; (pCold vector, Ni Sepharose)

# binder, binding result
data = [
    ("OsPRR1-p2 (EE probe) (dsDNA) DNA 1: GTTTCGTTTATTACACCGCCCCGG DNA 2: CCGGGGCGGTGTAATAAACGAAAC", "binds"),
    ("OsPRR1-p3 (EE probe) (dsDNA) DNA 1: CATCTGGCTTAACCACGCCCGGCTCTC DNA 2: GAGAGCCGGGCGTGGTTAAGCCAGATG", "binds"),
    ("OsPRR1-p1 (EE probe) (dsDNA) DNA 1: GTAGGGGGAGGAAAATATCCTGTGCCAGTAG DNA 2: CTACTGGCACAGGATATTTTCCTCCCCCTAC", "binds"),
]
